- measurement_protocol: Colorimetric MTT cytotoxicity assay, HMEC
- Assay type: cell-based
- setup_conditions: human, read-out: IC50 concentration (cytotoxicity)
observable: CC50 at 72 h

stdin: Entry C=C1C(=O)CC2CC3OC3(C)CCC3OC3(C)CC(O)C1C2(C)C (stereo not shown) : reported CC50 at 72 h = ?
stdout: 25 to 50 µM

* * *

- System: human two-way mixed lymphocyte reaction (PBMCs from two individuals)
- measurement_protocol: Two-way mixed leukocyte reaction (MLR), 3H-thymidine incorporation
- Assay type: cell-based
- setup_conditions: Homo sapiens, Leukocyte, 120 h; 5 days
pIC50: −log10 of the molar value.
observable: pIC50

stdin: Entry C=C1C(=O)CC2CC3OC3(C)CCC3OC3(C)CC(O)C1C2(C)C (stereo not shown) : reported pIC50 = ?
stdout: 5.00 to 5.30

Reference source: patent EP0986381B1
